# koff listing for each entry below
experimental.target: T1, Human mature myostatin (myostatin mature form; recombinant mature myostatin) (human (mature form 100% identical in …, UniProt O08689 268-376 (mouse entry), biotinylated in the Biacore assay (immobilized on a streptavidin chip); not labelled in the HEK Blue Assay)
T1 construct: Disulfide-bonded homodimer of the C-terminal growth factor domain, purified from latent myostatin expressed in FreeStyle293-F cells; also called GDF-8 mature form; C-terminal growth factor domain of human myostatin
T1 sequence: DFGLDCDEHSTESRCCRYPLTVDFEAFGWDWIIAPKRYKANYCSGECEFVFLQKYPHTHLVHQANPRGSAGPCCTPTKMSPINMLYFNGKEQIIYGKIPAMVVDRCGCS
assay.summary: SPR, Biacore T200, 37 degrees C; biotinylated mature myostatin on streptavidin chip, 100 nM antibody bound at pH 7.4; dissociation phase at pH 7.4
Field: numeric (s⁻¹). Do not append units.

Examples with answers:
binder | unit.label | endpoint.value
MS_M22601H1080-SG1/M22608L0837-SK1 (antibody, human IgG1, kappa, V domains shown, pH-dependent variant of MSLO00-SG1; also called MSLO02-SG1; LO02-SG1) VH: EVQLVESGGGLVQPGGSLRLSCAVSGFTLSHYVKGWVRQAPGKGLEWIGIINIEGSTYYASWAEGRFTISRDNSKNTVYLQMNSLRAEDTAVYFCARGHDNFGYSYHDFNLWGQGTLVTVSS VL: AVVMTQSPATLSLSPGERVTLSCQASESIHHELSWYQQKPGQPPKLLIYLASTLASGVPSRFKGSGSGTDFTLTISSLQPEDAATYYCQTYDGISHYGVAFGQGTKVEIKR | s⁻¹ | 9.7e-05
MS_M22601H1080-SG1/M22608L0846-SK1 (antibody, human IgG1, kappa, V domains shown, pH-dependent variant of MSLO00-SG1; also called MSLO04-SG1; LO04-SG1) VH: EVQLVESGGGLVQPGGSLRLSCAVSGFTLSHYVKGWVRQAPGKGLEWIGIINIEGSTYYASWAEGRFTISRDNSKNTVYLQMNSLRAEDTAVYFCARGHDNFGYSYHDFNLWGQGTLVTVSS VL: AVVMTQSPATLSLSPGERVTLSCQASQSIHHDLSWYQQKPGQPPKLLIYLASTLASGVPSRFKGSGSGTDFTLTISSLQPEDAATYYCQTYDGISHYGVAFGQGTKVEIKR | s⁻¹ | 4.19e-05
MS_M22601H1082-SG1/M22608L0837-SK1 (antibody, human IgG1, kappa, V domains shown, pH-dependent variant of MSLO00-SG1; also called MSLO03-SG1; LO03-SG1) VH: EVQLVESGGGLVQPGGSLRLSCAVSGFTLSHYVKGWVRQAPGKGLEWIGIINIEGETYYASWAKGRFTISRDNSKNTVYLQMNSLRAEDTAVYFCARGHDNFGYSYHDFNLWGQGTLVTVSS VL: AVVMTQSPATLSLSPGERVTLSCQASESIHHELSWYQQKPGQPPKLLIYLASTLASGVPSRFKGSGSGTDFTLTISSLQPEDAATYYCQTYDGISHYGVAFGQGTKVEIKR | s⁻¹ | 0.00012

Query: Reported koff for MS_M22601H-SG1/M22608L-SK1 (antibody, human IgG1, kappa, V domains shown, Humanized form of MST0226-G1m; the non pH-dependent antibody; also called MSLO00-SG1; LO00-SG1) VH: EVQLVESGGGLVQPGGSLRLSCAVSGFTLSNYVMGWVRQAPGKGLEWIGIINISGSTYYASWAKGRFTISRDNSKNTVYLQMNSLRAEDTAVYFCARGGDNFGYSYIDFNLWGQGTLVTVSS VL: AVVMTQSPATLSLSPGERVTLSCQASQSISNELSWYQQKPGQPPKLLIYLASTLASGVPSRFKGSGSGTDFTLTISSLQPEDAATYYCQTYDGISSYGVAFGQGTKVEIKR : what is it?
Result: 7.82e-05
